Measured On: SHP2-C SH2
Assay Text: SH2 binding enrichment of the phosphorylated peptide, bacterial display (enrichment ratio); higher = better substrate or ligand; peptides without Tyr show the background
SH2 binding enrichment: recorded values
Form rule: numeric answer, no unit written next to it.

>  <Primary Sequence>
ARLEYCENEKK [IRS1_Y47_Y47C]

>  <Measured On>
SHP2-C SH2

>  <Numeric Readout>
0.766

$$$$
>  <Primary Sequence>
LKGQVYILGLE [ASS1_Y359_R363L]

>  <Measured On>
SHP2-C SH2

>  <Numeric Readout>
1.02

$$$$
>  <Primary Sequence>
RRIHCYRGHLW [VHL_Y112_S111C]

>  <Measured On>
SHP2-C SH2

>  <Numeric Readout>
0.568

$$$$
>  <Primary Sequence>
EHFSFYGMKAV [SLC15A2_Y61_R57H_YF]

>  <Measured On>
SHP2-C SH2

>  <Numeric Readout>
0.629

$$$$
>  <Primary Sequence>
IHTDAYVRAMT [RPE65_Y89_R85H]

>  <Measured On>
SHP2-C SH2

>  <Numeric Readout>
0.914

$$$$
>  <Primary Sequence>
SIIKDYFHRGA [GATM_Y203]

>  <Measured On>
SHP2-C SH2

>  <Numeric Readout>
0.607

$$$$
>  <Primary Sequence>
WISNRYPDFSS [PRPH2_Y184_L185P]

>  <Measured On>
SHP2-C SH2

>  <Numeric Readout>
0.71

$$$$
>  <Primary Sequence>
SVVVSYEPPEV [TP53_Y220_P219S]

>  <Measured On>
SHP2-C SH2;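 note: peptide library displayed on the E. coli surface as eCPX fusions, selected cells deep-sequenced, score is each peptide's frequency after selection divided by its frequency in the input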

>  <Numeric Readout>
0.914

$$$$

Next:
Param item = EFGSGYPNDPK [RNASEH2A_Y210_D205E_YF] ; retrieve measured SH2 binding enrichment.
0.611

* * *

Measured On: FGFR3 (UniProt P22607)
Sequence (P22607 whole entry, looked up): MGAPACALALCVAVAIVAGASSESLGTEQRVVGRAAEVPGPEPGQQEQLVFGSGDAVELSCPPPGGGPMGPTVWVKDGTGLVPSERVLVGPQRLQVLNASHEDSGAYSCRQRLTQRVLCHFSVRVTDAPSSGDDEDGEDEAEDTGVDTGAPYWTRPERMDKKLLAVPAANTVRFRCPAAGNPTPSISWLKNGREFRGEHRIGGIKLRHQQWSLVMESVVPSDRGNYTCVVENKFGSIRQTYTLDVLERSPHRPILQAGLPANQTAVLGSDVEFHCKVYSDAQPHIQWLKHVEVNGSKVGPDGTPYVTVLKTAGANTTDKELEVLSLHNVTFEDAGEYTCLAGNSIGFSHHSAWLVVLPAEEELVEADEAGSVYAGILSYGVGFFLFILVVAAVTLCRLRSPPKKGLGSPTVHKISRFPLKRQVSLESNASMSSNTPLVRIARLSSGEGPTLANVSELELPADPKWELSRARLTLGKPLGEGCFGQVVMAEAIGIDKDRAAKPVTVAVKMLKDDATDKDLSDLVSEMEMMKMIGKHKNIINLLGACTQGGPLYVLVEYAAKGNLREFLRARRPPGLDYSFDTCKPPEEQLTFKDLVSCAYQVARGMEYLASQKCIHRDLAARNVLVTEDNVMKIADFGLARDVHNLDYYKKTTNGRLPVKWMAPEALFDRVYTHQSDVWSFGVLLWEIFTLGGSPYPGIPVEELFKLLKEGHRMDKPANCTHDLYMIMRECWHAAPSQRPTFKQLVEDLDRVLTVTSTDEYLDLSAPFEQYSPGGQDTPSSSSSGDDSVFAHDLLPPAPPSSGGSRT
Assay Text: phosphorylation enrichment, bacterial display (enrichment ratio); higher = better substrate or ligand; peptides without Tyr show the background
The entries below are paired with their reported phosphorylation enrichment.
Keep the answer to the number alone.

Field: example entries. Status: answers known.
>  <Primary Sequence>
KYLENYLNRLL [PLD2_Y169]

>  <Measured On>
FGFR3 (UniProt P22607)

>  <phosphorylation enrichment>
0.577

$$$$
>  <Primary Sequence>
LMVFEYMRHGD [NTRK1_Y591]

>  <Measured On>
FGFR3 (UniProt P22607)

>  <phosphorylation enrichment>
0.756

$$$$
>  <Primary Sequence>
SREDIYKRNIE [PDE4DIP_Y45]

>  <Measured On>
FGFR3 (UniProt P22607)

>  <phosphorylation enrichment>
0.585

$$$$
>  <Primary Sequence>
STGRSYAGVAV [KLHL3_Y577]

>  <Measured On>
FGFR3 (UniProt P22607)

>  <phosphorylation enrichment>
0.389

$$$$
>  <Primary Sequence>
LIEQAYDNPHE [PRPF8_Y871]

>  <Measured On>
FGFR3 (UniProt P22607)

>  <phosphorylation enrichment>
0.695

$$$$
>  <Primary Sequence>
GRGMPYGGRGD [TGM1_Y312_R307G]

>  <Measured On>
FGFR3 (UniProt P22607)

>  <phosphorylation enrichment>
0.449

$$$$

Consider the sequence SASQEYHIVKK [PDZD2_Y557] and give its measured phosphorylation enrichment.
0.538

May I ask what phosphorylation enrichment has been recorded for KVGNEYVNKGQ [MYH7_Y410_T412N] ?
0.391

# input sequence: RSDEDYLYREE [POR_Y573] ; wanted: its phosphorylation enrichment
1.16

Item under review: RRIHSYRGRLW [VHL_Y112_H115R] . Reported phosphorylation enrichment?
0.811

* * *

Measured On: Fyn (UniProt P06241)
Sequence (P06241 whole entry, looked up): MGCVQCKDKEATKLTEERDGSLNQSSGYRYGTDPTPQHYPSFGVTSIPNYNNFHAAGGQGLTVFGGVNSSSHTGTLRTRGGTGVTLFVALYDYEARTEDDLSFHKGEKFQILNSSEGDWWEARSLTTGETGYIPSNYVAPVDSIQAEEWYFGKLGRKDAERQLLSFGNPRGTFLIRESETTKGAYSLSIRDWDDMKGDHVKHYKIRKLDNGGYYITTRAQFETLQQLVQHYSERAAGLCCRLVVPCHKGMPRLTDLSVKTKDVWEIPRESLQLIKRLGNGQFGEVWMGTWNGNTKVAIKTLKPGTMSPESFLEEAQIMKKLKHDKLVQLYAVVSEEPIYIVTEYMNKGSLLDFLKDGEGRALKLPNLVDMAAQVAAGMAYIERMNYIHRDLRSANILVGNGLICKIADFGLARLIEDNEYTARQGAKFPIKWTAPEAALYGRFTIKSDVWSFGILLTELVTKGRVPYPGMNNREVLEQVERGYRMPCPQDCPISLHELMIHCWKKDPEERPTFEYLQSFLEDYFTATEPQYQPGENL
Assay Text: phosphorylation enrichment, bacterial display (enrichment ratio); higher = better substrate or ligand; peptides without Tyr show the background
Parameter Measured: phosphorylation enrichment
Output spec: single numeric token, no unit.

>  <Primary Sequence>
SVCPDYDLCSI [SQSTM1_Y148_V153I]

>  <Numeric Readout>
0.868

$$$$
>  <Primary Sequence>
TRSYDYTEGGD [FGF7_Y58_M59T]

>  <Numeric Readout>
0.56

$$$$
>  <Primary Sequence>
RRVLVYRGRGA [QDPR_Y16_G17R]

>  <Numeric Readout>
0.712

$$$$
>  <Primary Sequence>
KLIMECLPFGS [JAK2_Y931_Y931C_YF]

>  <Numeric Readout>
0.619

$$$$
>  <Primary Sequence>
PVDTFYDSTRG [DYNC2H1_Y2231_M2227V_YF]

>  <Numeric Readout>
0.671

$$$$
>  <Primary Sequence>
LVMFIDAIFGM [SCN1A_Y1684_Y1684D]

>  <Numeric Readout>
1.13

$$$$

For the record ADKSVYLMGLN [MYH7_Y386_A385V] , what value of phosphorylation enrichment is listed for Fyn (UniProt P06241)?
0.583

Lookup: phosphorylation enrichment / Fyn (UniProt P06241) / KDKLPYPYDDP [GPX2_Y125]
0.414

Given the entry CEHRGSLFLAI [TEK_Y897_Y897S_YF] , what phosphorylation enrichment was observed with Fyn (UniProt P06241)?
0.427

Notebook entry, Fyn (UniProt P06241) assay: phosphorylation enrichment of KNDSIYVVKGN [KIT_Y823_N822I] = ?
0.786

Which phosphorylation enrichment is reported with Fyn (UniProt P06241) for this entry: CTNIHYNYMCN [TP53_Y234_T231N] ?
0.464

// fetch Fyn (UniProt P06241) phosphorylation enrichment for IGSHAYGDQYR [IDH1_Y135_R132S]
0.464

Could you share what phosphorylation enrichment was measured for MSRNLYSGDCF [DDR2_Y736_Y740C_YF] , tested on Fyn (UniProt P06241)?
1.71

* * *

Reported phosphorylation enrichment values are given for each entry in this list.
Test system: c-Abl (mouse)
Assay Text: phosphorylation enrichment, bacterial display (enrichment ratio); higher = better substrate or ligand; peptides without Tyr show the background
Just the number, please, no unit attached.

>  <Primary Sequence>
FEREQYADRAR [RBM4_Y355_YF]

>  <Parameter Measured>
phosphorylation enrichment

>  <Numeric Readout>
0.464

$$$$

Requested read-out: phosphorylation enrichment. Entry: GTVRDYPDFSP [ANXA3_Y15]
0.532

I'd like to know its phosphorylation enrichment. The sequence in question is VGGRIYIDDGL [PKLR_Y218]
0.727

# query: phosphorylation enrichment of entry KSSDVYVSFDF [SORL1_Y136_YF]
0.935

Given the entry LGEGSYGKVKE [STK11_Y60] , report its measured phosphorylation enrichment.
1.12

What does the record list as phosphorylation enrichment for VLALWYYYLTN [ZDHHC23_Y127_H132N] ?
1.05

* * *

Test system: c-Src
Assay Text: phosphorylation enrichment, bacterial display (enrichment ratio); higher = better substrate or ligand; peptides without Tyr show the background
Recorded phosphorylation enrichment by entry
No unit in the answer, please; the number alone is enough.

>  <Primary Sequence>
EILLSYPRTGY [TGM1_Y365_L366P]

>  <Measured On>
c-Src

>  <phosphorylation enrichment>
0.448

$$$$

// query phosphorylation enrichment value for entry EHFSFYGMKAV [SLC15A2_Y61_R57H_YF]
0.579

Give the measured phosphorylation enrichment of LFLACYCIGGG [UBD_Y161] .
0.545

Query: phosphorylation enrichment; subject: FDAHIYEGCVI [PRKCD_Y64_R67C]
3.34

* * *

Measured On: Hck (UniProt P08631)
Sequence (P08631 whole entry, looked up): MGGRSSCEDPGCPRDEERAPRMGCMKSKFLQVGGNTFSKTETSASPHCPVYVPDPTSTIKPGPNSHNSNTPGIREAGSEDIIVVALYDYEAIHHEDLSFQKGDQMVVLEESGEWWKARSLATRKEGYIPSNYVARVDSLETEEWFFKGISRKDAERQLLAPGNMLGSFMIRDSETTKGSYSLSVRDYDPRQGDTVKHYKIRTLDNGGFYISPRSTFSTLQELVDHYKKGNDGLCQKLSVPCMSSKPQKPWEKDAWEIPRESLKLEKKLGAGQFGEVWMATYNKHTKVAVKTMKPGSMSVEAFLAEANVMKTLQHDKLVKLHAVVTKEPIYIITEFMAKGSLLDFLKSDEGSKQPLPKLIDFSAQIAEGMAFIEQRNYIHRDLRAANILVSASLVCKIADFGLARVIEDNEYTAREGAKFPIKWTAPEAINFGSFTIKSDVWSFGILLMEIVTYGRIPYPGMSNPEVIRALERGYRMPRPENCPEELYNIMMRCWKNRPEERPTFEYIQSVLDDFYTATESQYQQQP
Assay Text: phosphorylation enrichment, bacterial display (enrichment ratio); higher = better substrate or ligand; peptides without Tyr show the background
Form field: phosphorylation enrichment (one value per entry).
Write no unit; give the number alone.

>  <Primary Sequence>
MDDDQYALLTT [EFCAB6_Y675]

>  <phosphorylation enrichment>
0.956

$$$$

So what's the measured phosphorylation enrichment for this one? GADDSYFTARS [ZAP70_Y492_YF]
0.444

Look up phosphorylation enrichment: VHNLDYFKETT [FGFR3_Y647_K650E_YF]
0.446

I am curious: what phosphorylation enrichment value has been reported for YLNSSYINIST [IL23R_Y178_T175N] ?
0.591

Item under review: YCIDHYLGKEM [G6PD_Y202_R198C] . Reported phosphorylation enrichment?
0.694

Tell me the measured phosphorylation enrichment of MCDKEYYSVHN [MET_Y1234_Y1230C] , please.
0.734

What value of measured phosphorylation enrichment is listed for VAHAVYQAVLS [SMG1_Y549] ?
8.28

Any idea what its phosphorylation enrichment is? The sequence is FKGKKYKPLDL [RPL35_Y78_YF]
0.48

Which measured phosphorylation enrichment value corresponds to HLNLTYRILSF [MMP23B_Y95_F91L] ?
0.54

# input sequence: VEEDTYTMPST [PTK2_Y407_D402V] ; wanted: its phosphorylation enrichment
3.5

Bench note: what phosphorylation enrichment did KLIMECLPFGS [JAK2_Y931_Y931C_YF] show?
0.652

Suppose we examine the sequence PSQRRYVFFFS [PTEN_Y174_YF] ; what phosphorylation enrichment value has been reported?
0.476

Can you share its phosphorylation enrichment? I mean this sequence: YTGDIYSNSNL [LZTR1_Y141]
7.87

Tell me the measured phosphorylation enrichment of FDNPVCQKTTE [LDLR_Y828_Y828C] , please.
0.603

Fill blank: measured phosphorylation enrichment of the sequence VDGSVYELHPS [GCK_Y413_K414E] is ____.
8.06
